The reported numbers originate from patent US5830897A.

Target: HIV protease (Human immunodeficiency virus type 1 group M subtype B, UniProt P04585)
Construct: HIV protease is diluted in the assay buffer to a final enzyme concentration of 12.3 nanomolar, based on a molecular weight of 10,780
Assay: biochemical
Settings: Table 16; enzyme assay
Description: The enzyme method is described below. […] The positive control is MVT-101 (Miller, M. et al, Science, 246, 1149 (1989)] The assay conditions are as follows: Assay buffer: 20 mM sodium phosphate, pH 6.4 The above described substrate is dissolved in DMSO, then diluted 10 fold in assay buffer. […] The final concentration of DMSO is 14% and the final concentration of glycerol is 18%. […] The increase in fluorescence is monitored at 4 time points (0, 8, 16 and 24 minutes) at ambient temperature. […]
Reported Property: IC50 (nM)
Give just the number in nM; leave the unit off.

Query: Given CC(C)CCN(C[C@@H](O)[C@H](Cc1ccccc1)NC(=O)[C@H](CC(N)=O)NC(=O)c1ccc2ccccc2n1)S(C)(=O)=O [Table 16 Entry 4] , state its recorded IC50.
Result: 27

Here is another molecule to look at.
Query: Recorded IC50 for COc1ccc(S(=O)(=O)N(CC(C)C)C[C@@H](O)[C@H](Cc2ccccc2)NC(=O)c2ccccc2)cc1 [Table 16 Entry 28] , please?
Result: 14
